# protocol text: yeast display, Sf9 membrane polyspecificity reagent, FACS + sequencing; frameworks hold sequencing errors
outcome measure: polyreactivity (PSR sort gate)

1) QVQLVESGGGLDQAGGSLRLICAASVRTFFVNAMGRYRQAPGKERELVATITFSGDSTYYADSVKGRFTISRDNAKNTVYLQMNSLKPADTAVYYCAAYQGQKGYDYWGQGTQVTVSS = high polyreactivity
2) QVQLVESGGGLVQAGGSLRLSCAASGRTFPYYVMGWNRQAPRKERELVATISSSGRTYYADSVKGRFTISRDNAKNTVYLQMNSLNPEDTSVYYCAARFRWNQNYHFYYWGQGTQVTVSS = high polyreactivity

====

# protocol text: yeast display, Sf9 membrane polyspecificity reagent, FACS + sequencing; frameworks hold sequencing errors
outcome measure: polyreactivity (PSR sort gate)

1) QVQLVESAGGLVQAGGSLRITCAASASTYSWYTMGWYREAPGKERELVASINYSGTNTYYADSVKGRFTISRDNAKNTVYLQMNSLNPEDTAVYYCAARPRTKLTAYNYCGQGTQVTVSS = high polyreactivity
2) QVQLVESGGGLVQAGGSLRLICAASGITFAVYAMGWYSQAPGKERELVAASSVSGGSTYYADSVKGRFTISRDNAKNTVYLQMNSLKPEATAVYYGAADRYGHFGDWGQGTQVTVSS = high polyreactivity
3) QVQLVESGGGLVQAGGSRRLSCAASGSISNRYAMGWYRPAPGKEREFVARIRRRGGSTNYADSVKGRFTISRDNAKKTVYLQMNSLKPEDTAVYYCNAYPYQLDYDYWGQGTQVTVSS = high polyreactivity
4) QVQLVESGGGLVQAGGSIRLSCAASGSTSYIKVMGWYRQAPGKEREMVATISSSGGNTYYADSVKGRFTISRDNAKNTVYLQMNSLKPEDTAVYYCAAKVRVWYYRMDSWGQCTQVTVSS = low polyreactivity
5) QVQLVESGGGLVQAGGSLRLSCAASGRILGRNAMGWYRQAPGKEREFVAGISYSGTSTYYADSVKGRFTISRDNAKNTVYLQMNSLKPEDTAVYYCAVYTGRQPRVSGKYYYWGQGTQVTVSS = high polyreactivity

Input QVQLVESGGGLVQAGGSLRLSCAASGGISTAYTMGWYRQEPGKERELVADITRSGGRTYYADSVKGRFTISRDTAKNNVYLQMNSLKPEDTAVYYCARTYYYRFNYWGQGTQVTVSS . Output polyreactivity (PSR sort gate): high polyreactivity

Input QVQLVESGGGLVQPGGSLRLSCAAYRSTFTDYDKGWYRQAPGKERELVAAITSGGSTNYADSVKGRFTISRDNAKNTFYLQLNSLKPEDTAVYYCAAADSDRKYDYWGQGTQVTVSS . Output polyreactivity (PSR sort gate): low polyreactivity

Input QVQLLESGGGLVQAGGSLRLSCAASGSTFKKNAMGWYRQAPGKETELVAAISGIGTRTSYADSVKGRFTISRDNAKNTVYLQMNSLKPEDTAVYYCAARYYGFPSTLKYDYWGQGTQVTVSS . Output polyreactivity (PSR sort gate): high polyreactivity

Input QVQLVESGGGLVQAGGSLRLSCAASGRIFGNYAMGWYRQAPGKERELVAAIRWSGGRTYYADSVKGRFTISRDTAKNTVYLQMNSLKPEDTAVYYCNAYGRYSYPTFDYWGQGTQVTVSS . Output polyreactivity (PSR sort gate): high polyreactivity

Input QVQLVQSGRGLVHAGCSLRLSCAASGRIYAGNAMGLYRQPPGKERELFATITSGGSTYYADSVKGRFTISRDNAKNTVYLQMNSLKPEDTAVYYCNAVNYWVKSRFSLTWEFAVVYWGQGTQVTVSS . Output polyreactivity (PSR sort gate): low polyreactivity

Input QVQLVESGGGLVQAGGSLRLSCAASGRIFPYNAMGWYIQGPGKERELVAAISGGGSSTYYADSVKGRFTISRDNAKNTVYLQMNSLKPEVTAVYYCAAQAWWDGEYDYWGQGTKVTVSS . Output polyreactivity (PSR sort gate): high polyreactivity

====

# protocol text: yeast display, Sf9 membrane polyspecificity reagent, FACS + sequencing; frameworks hold sequencing errors
outcome measure: polyreactivity (PSR sort gate)

Here are 4 sequences together with their reported answers.
1) QVQLVESSGGLVQAGGSLRLSCAASGLTFKRYAMGWYRQAPGKERELVAAINSGGSTNYADSVKGRFTISRDNAKNTVYLQMNSLKPEDTAVYDCAASTSRYYWYALRDYWGQGTQVTVSS = high polyreactivity
2) QVQLVESGGGLVQAGGSLRLSCAASGRIFAYYAMGWYRQAPGKERELVAAISRGGGSTSYADSVKGRFTISRDNAKNTFYLQMNSLKPEDTAVYYCAKDRGYRYLGDYWGQGTQVTVSS = low polyreactivity
3) QVQLVESGGGLVQAGGSLRLSCAASGFTFGFYAMGWYRQAPGKERELVAAISGSGGRTYYADSVKGRFTISRDNAKNTVYLQMNSLKPEDTAVYYCAARWQRKSNGDEDYWGQGTQVTVSS = high polyreactivity
4) QVQLVESGGGLVQAGGSLRLSCAASGFTFDDYTMGWYRPAPGKEREFVAAISSSGGSTYYADSVKGRFTISRDNAKNTVYLQMNSLKPVDTAVYYCAADARYYDYYEYDYWGQGTQVTVSS = high polyreactivity

Now take the following sequence into account.
Input QVQLVESGGGLVQAGGSLRLSCAASGSIFFVYGMGWYRQAPGKERELVAAISGGITNYADSVKGRFTISRDNAKNTVNLQMNSLKPEDTAVYYCAAYTPSYGGRDYWGQATQVTVSS . Output polyreactivity (PSR sort gate): low polyreactivity

====

# protocol text: yeast display, Sf9 membrane polyspecificity reagent, FACS + sequencing; frameworks hold sequencing errors
outcome measure: polyreactivity (PSR sort gate)

Here are 6 sequences together with their reported answers.
1) QVQLVESGGGLVQAGGSLRLSCAASGSNFFYNVMGWYRQAPGKERELVAAITRSGGRTYYADSVKGRFTISRDNAKNTVYLQMNSLKPEDTAVYYCAAALGGKFDYWGQGTQVTVSS = high polyreactivity
2) QVQLVESGGGLVQAGGSLRLSCAASGRTFGRYVMGWYIQAPGKERELVAAIRWSGGTTYYADSVKGRFTISRDNAKNTVYLQMNSLKPEDTAVYYCAARWGPYYGGVRYGYWGQGTQVTVSS = high polyreactivity
3) QVHLVESGGGLVQAGGSHRLSCAASGFTIHRYAMGWYRQAPGKERELVAGITRRSGSTFYADSVKGRFTISRDNAKNTVFLQMNSLKPEDTAVYYCAATVPGLHWIYDYWGQGTQVTVSS = high polyreactivity
4) QVQLVESGGGLVQAGGSLRLSCAASGSTFLSYAKGWYRQATGKEREVVAAISGRGGSTYYADSVKGRFTISRDNAKNTVYLKMNSLKPEDTAVYYCARVYRPSADTYNYWGQGTQVTVSS = high polyreactivity
5) QVQLVESGGGLVQAGGSLRLSCAASGRIITYYAMGWYRQAPGKERELVAVISSVGGTYYADSVKGRFTISRDNAKNTVYLQMNSLKPEDTAVYYCAVGKIWSRRSSTSRFGYWGQGTQVTVSS = high polyreactivity
6) QVQLVESGGGLVQAGGSLRLSCAASGFTFDANAIGWYRQAPGKERELVAAISSSGGSTYYADSVKGRFTISRDNAKNTVYLQMNSLKPEDTAVYYCAADLAPGRHDYWGQGTQVTVSS = high polyreactivity

Input QVQLVESGGGLVQAGGSLRLSCAASGRIIYTYEMGWYRQAPGKERELVAAISGSGGSTYYADSVKGRFTISRDNSKTTLYLQMNRLKPEDTGVYYCNGAYYGYENLYKRGYWGQGSQVTVSS . Output polyreactivity (PSR sort gate): high polyreactivity

Input QVQLVESGGGLVQAGGSLRLSCAASGSIFSEYAMGWYRQAPGKERELVAAISKSTGRTYYADSVKGRFTISRDNAKNTVYLQMNSLKPEDTAVYYCNAVRRAFIASYDYWGQGTQVTVSS . Output polyreactivity (PSR sort gate): high polyreactivity

Input QVQLVESGGGLVQAGGSLRLSCAASGRIFRRNAMGWYRQAPGKEREFVAAISYRGGSTYYADSVKGRFTISRDNAKNTVYLQMNSLKPEDTAVYYCAATGYGSAYNPYDHWGQGTQVTVSS . Output polyreactivity (PSR sort gate): high polyreactivity

Input QVQLVESGGGLVQAGGSLRLSCAASGFIFYYNAMGWYRQAPGKERELVAAITRSGGSTYYADSVKGRFTISRDNAKNTVYLQMNSLKPEDTAVYYCAARVYPYHWSYYYWGQGTQVTVSS . Output polyreactivity (PSR sort gate): high polyreactivity

Input QVQLVESGGGLVQAGGRLRLSCAASGITFYVYAMGWYRQAPGKVREFVAAISTRDGTTYADSVKGRFTISRDNAKNTVYLQMNRLKPEDTAVYFCAAAYYYDGQQGDFDYWGQGTQVTVSS . Output polyreactivity (PSR sort gate): low polyreactivity

Input QVKLEESGGGLVQAGGSLRLSSAASGYTIGIYAMGWYRQAPGKERELVAAISADGGITYYADSVKGRFTISRDNAKNTVYLQMNSLKPEDTAFYYCNTLVDQDAYAGFRLDYWGQGSQVTVSS . Output polyreactivity (PSR sort gate): low polyreactivity

Input QVQLVESGGGLFQAGGSLRLNCAASGSIFGSYAMVWYIQAPGKELELVAAITSDGITNYADSVKGRFTISRDNEKNTDYLQMNSLKPEDTAVYYCAAPGPLGGSDYWGQGTQVTVSS . Output polyreactivity (PSR sort gate): low polyreactivity

Values were extracted from the nanobody polyreactivity screen of Harvey et al. (2022).
